Numbers sourced from the supplement of paper PMC10219994.

B1: library; a variant is named by its letters at N, in order (parent)
chain: GAGACCGCAACTGAAAAGTTGTGGNNNNNATAGTGAGTCGCTGCCTGCAAAGACACAACT

# Variants of: B1
# procedure details: ligation selection enrichment (abundance after / before one-round selection) (fold); higher = more template-directed ligation activity
# conditions: with T7Psub CACGGAUGCUAAUACGACUCACUAUA; MgCl2 25 mM; 42 °C; 4 h; pH 8.5
Class (required): determined from ligation selection enrichment; valid ranges are low: < 0.3; moderate: ≥ 0.3 and < 0.6; high: ≥ 0.6

Exam item: Which ligation selection enrichment category applies to "CCGCG" here?
Marked response: moderate

Exam item: Which ligation selection enrichment category applies to "AGCCA" here?
Marked response: low
